assayTarget: UniProt P37058
procedureDetails: Inhibition of 17Beta-HSD3 expressed in homogenized HEK293 cells assessed as transformation of [14C]-4-androstene-3,17-dione into [14C]-testosterone in presence of NADPH at 1 uM
Type: cell-based
Outcome: yes for inhibition of at least 80%; no for anything lower.

Below are worked cases with known answers.
- molecule: "C[C@]12CC[C@@]3(C[C@@H]1CC[C@@H]1[C@@H]2CC[C@]2(C)C(=O)CC[C@@H]12)CN(Cc1ccccc1)C(=O)O3"
  class: "yes"
- molecule: "C[C@]12CC[C@@]3(C[C@@H]1CC[C@@H]1[C@@H]2CC[C@]2(C)C(=O)CC[C@@H]12)CN(CCC(CN1CCOCC1)OC(=O)CCC1CCCC1)C(=O)O3 (some centres undefined)"
  class: "yes"
- molecule: "CCCCN(CCCC)C[C@@]1(O)CC[C@@]2(C)[C@@H](CC[C@@H]3[C@@H]2CC[C@]2(C)C(=O)CC[C@@H]32)C1"
  class: "yes"
- molecule: "C[C@]12CC[C@](O)(CN3CCC(Cc4ccccc4)CC3)C[C@@H]1CC[C@@H]1[C@@H]2CC[C@]2(C)C(=O)CC[C@@H]12"
  class: "yes"
- molecule: "COc1ccc(CN2C[C@]3(CC[C@@]4(C)[C@@H](CC[C@@H]5[C@@H]4CC[C@]4(C)C(=O)CC[C@@H]54)C3)OC2=O)cc1"
  class: "yes"

Query block: Does the reported inhibition for CCN(Cc1ccccc1)C[C@@]1(O)CC[C@@]2(C)[C@@H](CC[C@@H]3[C@@H]2CC[C@]2(C)C(=O)CC[C@@H]32)C1 fall at or above the 80% mark?
Result block: yes

Query block: Does the reported inhibition for C[C@]12CC[C@](O)(CN3CCC(N4CCCCC4)CC3)C[C@@H]1CC[C@@H]1[C@@H]2CC[C@]2(C)C(=O)CC[C@@H]12 fall at or above the 80% mark?
Result block: no

Query block: Does the reported inhibition for Cc1ccc(CN2C[C@]3(CC[C@@]4(C)[C@@H](CC[C@@H]5[C@@H]4CC[C@]4(C)C(=O)CC[C@@H]54)C3)OC2=O)cc1 fall at or above the 80% mark?
Result block: yes

----------
Here, each record is paired with measured inhibition data.
assayTarget: 17-beta-hydroxysteroid dehydrogenase type 3 (Homo sapiens) (UniProt P37058)
Sequence (whole entry): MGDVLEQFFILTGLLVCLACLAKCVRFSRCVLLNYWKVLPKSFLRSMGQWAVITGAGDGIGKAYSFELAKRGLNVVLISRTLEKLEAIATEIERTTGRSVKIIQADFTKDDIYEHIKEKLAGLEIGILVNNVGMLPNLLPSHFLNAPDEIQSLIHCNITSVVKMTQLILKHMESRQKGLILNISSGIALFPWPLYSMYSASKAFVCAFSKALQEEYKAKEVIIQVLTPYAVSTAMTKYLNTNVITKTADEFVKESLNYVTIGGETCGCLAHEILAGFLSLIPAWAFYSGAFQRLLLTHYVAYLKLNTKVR
procedureDetails: Inhibition of 17Beta-HSD3 expressed in intact HEK293 cells assessed as transformation of [14C]-4-androstene-3,17-dione into [14C]-testosterone in presence of NADPH at 0.1 uM after 1 hr incubation
Type: cell-based
Your answer should be a plain number; it is taken to be in %.

Examples with answers:
- compound: "C[C@@H]1CN(Cc2ccc(C(F)(F)F)cc2C(F)(F)F)[C@@H](C)CN1C[C@@]1(O)CC[C@@]2(C)[C@@H](CC[C@@H]3[C@@H]2CC[C@]2(C)C(=O)CC[C@@H]32)C1"
  readoutName: "inhibition"
  readoutValue: 21
- compound: "Cc1ccc(CN2C[C@]3(CC[C@@]4(C)[C@@H](CC[C@@H]5[C@@H]4CC[C@]4(C)C(=O)CC[C@@H]54)C3)OC2=O)cc1"
  readoutName: "inhibition"
  readoutValue: 38
- compound: "C[C@]12CC[C@@]3(C[C@@H]1CC[C@@H]1[C@@H]2CC[C@]2(C)C(=O)CC[C@@H]12)CN(CCO)C(=O)O3"
  readoutName: "inhibition"
  readoutValue: 16
- compound: "C[C@@H]1CN(Cc2ccccc2C(F)(F)F)[C@@H](C)CN1C[C@@]1(O)CC[C@@]2(C)[C@@H](CC[C@@H]3[C@@H]2CC[C@]2(C)C(=O)CC[C@@H]32)C1"
  readoutName: "inhibition"
  readoutValue: 36
- compound: "C[C@@H]1CN(Cc2cc(C(F)(F)F)cc(C(F)(F)F)c2)[C@@H](C)CN1C[C@@]1(O)CC[C@@]2(C)[C@@H](CC[C@@H]3[C@@H]2CC[C@]2(C)C(=O)CC[C@@H]32)C1"
  readoutName: "inhibition"
  readoutValue: 16

Here is another compound to look at.
inhibition for 17-beta-hydroxysteroid dehydrogenase type 3 (Homo sapiens) (UniProt P37058) with input C[C@@H]1CN(S(=O)(=O)c2ccc(C(F)(F)F)cc2)[C@@H](C)CN1C[C@@]1(O)CC[C@@]2(C)[C@@H](CC[C@@H]3[C@@H]2CC[C@]2(C)C(=O)CC[C@@H]32)C1 equals 47
